- assayed_system: Dihydrofolate reductase (Pneumocystis carinii, UniProt P16184)
- Sequence (P16184 whole entry): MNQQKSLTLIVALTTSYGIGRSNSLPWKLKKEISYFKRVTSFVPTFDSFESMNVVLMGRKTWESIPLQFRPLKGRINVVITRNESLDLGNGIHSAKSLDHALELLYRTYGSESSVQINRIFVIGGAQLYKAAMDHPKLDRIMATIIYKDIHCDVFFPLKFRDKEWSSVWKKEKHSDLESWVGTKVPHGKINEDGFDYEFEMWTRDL
measurement_name: IC50
Put your answer as a value accompanied by its unit after it.

Q. Please tell me: IC50 of Nc1nc(N)c2nc(CN3c4ccccc4CCc4ccccc43)cnc2n1 , system Dihydrofolate reductase (Pneumocystis carinii, UniProt P16184)?
A. 210 nM
